B1: GRB10-interacting GYF protein 1 (Homo sapiens), O75420 (parent)
chain: MAAETLNFGPEWLRALSGGGSVASPPPSPAMPKYKLADYRYGREEMLALYVKENKVPEELQDKEFAAVLQDEPLQPLALEPLTEEEQRNFSLSVNSVAVLRLMGKGAGPPLAGTSRGRGSTRSRGRGRGDSCFYQRSIEEGDGAFGRSPREIQRSQSWDDRGERRFEKSARRDGARCGFEEGGAGPRKEHARSDSENWRSLREEQEEEEEGSWRLGAGPRRDGDRWRSASPDGGPRSAGWREHGERRRKFEFDLRGDRGGCGEEEGRGGGGSSHLRRCRAPEGFEEDKDGLPEWCLDDEDEEMGTFDASGAFLPLKKGPKEPIPEEQELDFQGLEEEEEPSEGLEEEGPEAGGKELTPLPPQEEKSSSPSPLPTLGPLWGTNGDGDETAEKEPPAAEDDIRGIQLSPGVGSSAGPPGDLEDDEGLKHLQQEAEKLVASLQDSSLEEEQFTAAMQTQGLRHSAAATALPLSHGAARKWFYKDPQGEIQGPFTTQEMAEWFQAGYFSMSLLVKRGCDEGFQPLGEVIKMWGRVPFAPGPSPPPLLGNMDQERLKKQQELAAAALYQQLQHQQFLQLVSSRQLPQCALREKAALGDLTPPPPPPPQQQQQQLTAFLQQLQALKPPRGGDQNLLPTMSRSLSVPDSGRLWDVHTSASSQSGGEASLWDIPINSSTQGPILEQLQLQHKFQERREVELRAKREEEERKRREEKRRQQQQEEQKRRQEEEELFRRKHVRQQELLLKLLQQQQAVPVPPAPSSPPPLWAGLAKQGLSMKTLLELQLEGERQLHKQPPPREPARAQAPNHRVQLGGLGTAPLNQWVSEAGPLWGGPDKSGGGSSGLGLWEDTPKSGGSLVRGLGLKNSRSSPSLSDSYSHLSGRPIRKKTEEEEKLLKLLQGIPRPQDGFTQWCEQMLHTLSATGSLDVPMAVAILKEVESPYDVHDYIRSCLGDTLEAKEFAKQFLERRAKQKASQQRQQQQEAWLSSASLQTAFQANHSTKLGPGEGSKAKRRALMLHSDPSILGYSLHGSSGEIESVDDY

# Variants of: B1
# Condition parameters: with EIF4E2, O60573-1
# Sequence (O60573 whole entry): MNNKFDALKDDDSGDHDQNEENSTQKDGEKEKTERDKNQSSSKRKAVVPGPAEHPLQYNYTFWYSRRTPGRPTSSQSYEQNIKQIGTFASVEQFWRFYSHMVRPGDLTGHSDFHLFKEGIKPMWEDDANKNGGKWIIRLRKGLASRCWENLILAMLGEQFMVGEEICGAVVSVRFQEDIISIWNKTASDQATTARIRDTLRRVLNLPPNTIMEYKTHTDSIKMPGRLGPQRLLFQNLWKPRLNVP
Observation type: effect of a mutation on the interaction

Look up effect of a mutation on the interaction for this variant: E86A;N95F with no effect

Look up effect of a mutation on the interaction for this variant: L60D;F65A;V68D with no effect
